Ref: patent US9233940B2

The molecules listed here are annotated with their activity at 0.1 µM.
# target system: recombinant mouse PD-L1 (Mus musculus)
# Construct: purchased R&D Systems 1019-B7-100
# Sequence (Q9EP73 with tags, fused parts or gaps limits assumed): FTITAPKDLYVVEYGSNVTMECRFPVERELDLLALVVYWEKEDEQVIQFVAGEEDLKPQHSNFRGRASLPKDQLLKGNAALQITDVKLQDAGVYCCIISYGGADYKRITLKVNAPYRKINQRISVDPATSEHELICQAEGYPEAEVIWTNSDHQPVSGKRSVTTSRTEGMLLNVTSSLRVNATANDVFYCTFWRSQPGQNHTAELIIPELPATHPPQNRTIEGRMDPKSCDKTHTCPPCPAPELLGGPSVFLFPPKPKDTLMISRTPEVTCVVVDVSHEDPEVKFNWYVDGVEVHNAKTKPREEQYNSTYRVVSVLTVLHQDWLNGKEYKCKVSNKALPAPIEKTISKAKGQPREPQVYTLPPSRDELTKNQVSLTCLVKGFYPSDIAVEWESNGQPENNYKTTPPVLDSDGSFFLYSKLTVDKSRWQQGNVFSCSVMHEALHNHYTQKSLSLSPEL
# assay protocol: Rescue of mouse splenocyte proliferation in the presence of recombinant PD-L1 (CFSE proliferation assay)
# Type: cell-based
# cond: 72 h, 100 nM compound; CFSE-labelled mouse splenocytes + anti-CD3/CD28 + PD-L1, 72 h; normalised to stimulated splenocytes as 100%; read-out: Percent rescue of splenocyte proliferation @ 100 nM compound concentration
Numeric answer only, unit % assumed.

molecule	activity at 0.1 µM [%]
CCC(C)[C@@H]1NC(=O)N[C@@H](CC(N)=O)C(=O)NNC(=O)[C@H](CO)NC(=O)COCCOCCNC1=O (some centres unmarked) [Compound 5]	53
NC(=O)C[C@@H]1NC(=O)N[C@H](CO)C(=O)NCCOCCOCC(=O)N[C@@H](CO)C(=O)NNC1=O [Compound 9]	73
CC(O)[C@H]1NC(=O)COCCOCCNC(=O)[C@@H](CO)NC(=O)N[C@H](CC(N)=O)C(=O)N(C)NC1=O (some centres unmarked) [Compound 3]	58
NC(=O)C[C@@H]1NC(=O)N[C@@H](CC(=O)O)C(=O)NCCOCCOCC(=O)N[C@@H](CO)C(=O)NNC1=O [Compound 8]	68
CC(O)[C@H]1NC(=O)COCCOCCNC(=O)[C@@H](CO)NC(=O)N[C@H](CC(N)=O)C(=O)NNC1=O (some centres unmarked) [Compound 2]	94

Qu. activity at 0.1 µM for CC(O)[C@@H]1NC(=O)N[C@@H](CC(N)=O)C(=O)NNC(=O)[C@H](CO)NC(=O)COCCOCCNC1=O (some centres unmarked) [Compound 1] ?
Ans. 95

Qu. Please do the same for CC(O)[C@@H]1NC(=O)N[C@H](CC(N)=O)C(=O)NNC(=O)[C@@H](C(C)O)NC(=O)COCCOCCNC1=O (some centres unmarked) [Compound 10] as well.
Ans. 89

Qu. Please do the same for CC(O)[C@H]1NC(=O)CCCCCCNC(=O)[C@@H](CO)NC(=O)N[C@H](CC(N)=O)C(=O)NNC1=O (some centres unmarked) [Compound 4] as well.
Ans. 49
